Biological target: Sphingosine-1-phosphate transporter SPNS2 (Mus musculus)
Test: Inhibition of mouse Spns2 transfected in human HeLa cells by measuring S1P release at 2 uM by LC/MS analysis relative to control
Type: cell-based
readout: inhibition (%)

These solved cases illustrate the format of a correct answer.
[
  {
    "compound": "CCCCCCCCCCc1ccc(-c2cnn(CCCN)c2)cc1",
    "inhibition [%]": 50
  },
  {
    "compound": "CCCCCCCCCCc1ccc(-c2noc(CC(O)CN)n2)cc1 (stereo unspecified)",
    "inhibition [%]": 59
  },
  {
    "compound": "CCCCCCCc1ccc(-c2noc(CCCN)n2)cc1",
    "inhibition [%]": 52
  }
]

1: CCCCCCCCCCc1ccc(-c2noc([C@@H](N)CCCCN)n2)cc1
2: CCCCCCCCCCc1ccc(-c2c[nH]c(CCCN)n2)cc1
3: CCCCCCCCCCc1ccc(-c2noc(CC(CN)OC(C)=O)n2)cc1 (stereo unspecified)
Kindly order the items shown according to inhibition, from the highest value down. Please respond with the labels ordered as the question requires.
2, 1, 3
(2: 63%, 1: 43%, 3: 0%)

====

Biological target: Sphingosine-1-phosphate transporter SPNS2 (Mus musculus)
Sequence (whole entry): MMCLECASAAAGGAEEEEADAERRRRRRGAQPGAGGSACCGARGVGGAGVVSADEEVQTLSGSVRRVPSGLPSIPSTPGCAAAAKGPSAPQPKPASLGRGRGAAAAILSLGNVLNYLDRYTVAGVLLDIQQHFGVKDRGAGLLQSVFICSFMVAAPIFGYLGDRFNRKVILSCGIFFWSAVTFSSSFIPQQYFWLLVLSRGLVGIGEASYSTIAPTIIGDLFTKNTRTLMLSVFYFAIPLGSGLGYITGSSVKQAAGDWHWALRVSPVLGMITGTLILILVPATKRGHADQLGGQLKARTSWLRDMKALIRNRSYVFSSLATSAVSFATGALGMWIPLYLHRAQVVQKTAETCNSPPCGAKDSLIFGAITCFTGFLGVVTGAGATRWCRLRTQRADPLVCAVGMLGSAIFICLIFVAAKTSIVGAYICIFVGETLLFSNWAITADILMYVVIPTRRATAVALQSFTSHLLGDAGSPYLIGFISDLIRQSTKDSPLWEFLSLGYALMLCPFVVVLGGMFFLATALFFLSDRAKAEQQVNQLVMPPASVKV
Test: Inhibition of mouse Spns2 transfected in human HeLa cells by measuring S1P release at 2 uM by LC/MS analysis relative to control
Type: cell-based
readout: inhibition (%)

These solved cases illustrate the format of a correct answer.
[
  {
    "compound": "CCCCCCCCCOc1ccc(-c2noc(CCCN)n2)cc1F",
    "inhibition [%]": 50
  },
  {
    "compound": "CCCCCCCCCCc1ccc(-c2noc(CC3CNC3)n2)cc1",
    "inhibition [%]": 63
  },
  {
    "compound": "CCCCCCCCc1ccc(-c2noc(CCCN)n2)cc1",
    "inhibition [%]": 70
  }
]

P: CCCCCCCCCCc1ccc(-c2ccn(CCCN)n2)cc1
Q: CCCCCCCCCCc1ccc(-c2noc(-c3cccc(CN)c3)n2)cc1
Form field 'greater inhibition' accepts P or Q ; which applies? Response format: the label of the selected entry.
P
(P: 44%, Q: 2%)

====

Target: Sphingosine-1-phosphate transporter SPNS2 (Mus musculus) (UniProt Q91VM4)
Assay: Inhibition of mouse Spns2 transfected in human HeLa cells by measuring S1P release at 2 uM by LC/MS analysis relative to control
Format: cell-based
readout: inhibition (%)

These solved cases illustrate the format of a correct answer.
[
  {
    "molecule": "CCCCCCCCc1ccc(CCc2noc(CCCN)n2)cc1",
    "unitOfMeasurement": "%",
    "inhibition": 40
  },
  {
    "molecule": "CCCCCCCCCCc1ccc(-c2noc(C[C@@H]3CCNC3)n2)cc1",
    "unitOfMeasurement": "%",
    "inhibition": 44
  },
  {
    "molecule": "CCCCCCCCCCc1ccc(-c2noc(CCCN3CCOCC3)n2)cc1",
    "unitOfMeasurement": "%",
    "inhibition": 2
  },
  {
    "molecule": "CCCCCCCCCCc1ccc(-c2noc(CC[C@@H](N)C(=O)O)n2)cc1",
    "unitOfMeasurement": "%",
    "inhibition": 5
  },
  {
    "molecule": "CCCCCCCCNC(=O)c1ccc(-c2noc(CCCN)n2)cc1",
    "unitOfMeasurement": "%",
    "inhibition": 0
  },
  {
    "molecule": "CCCCCCCCCCc1ccc(-c2noc(CN3CCNCC3)n2)cc1",
    "unitOfMeasurement": "%",
    "inhibition": 19
  }
]

a: CCCCCCCCCCc1ccc(-c2noc([C@@H](N)CCN)n2)cc1
b: CCCCCCCCCc1ccc(-c2noc(CCCN)n2)cc1
c: CCCCCCCCCCc1ccc(-c2noc([C@@H]3CC[C@H](N)C3)n2)cc1
// ascending sort on recorded inhibition Please respond with the labels ordered as the question requires.
a, c, b
(a: 14%, c: 38%, b: 61%)

a: CCCCCCCCCCc1ccc(-c2noc(CCN)n2)cc1
b: CCCCCCCCCCc1cccc(-c2noc(CCCN)n2)c1
Form field 'greater inhibition' accepts a or b ; which applies? Response format: the label of the selected entry.
a
(a: 59%, b: 26%)
